assay: Luminescence Cell-Based Dose Retest to Confirm Inhibitors of Cancer Stem Cells. [Related pubchem assays (depositor defined):AID2717, AID2721]; type: functional; settings: Homo sapiens;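 further: cells exposed to compound for roughly 70 hours or longer before luminescence read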
Active and inactive are the calls of the source. No stated cut-off is given here; in the data, actives have a measured AC50 and inactives only a lower limit.
Below is a list of entries, each paired with its recorded AC50 value.

Worked cases, answers included:
• CCOC(=O)c1ccc(NC(=O)c2[nH]cnc2C(=O)NCCCCNC(=O)c2nc[nH]c2C(=O)Nc2ccc(C(=O)OCC)cc2)cc1 = 2510 nM (active)
• C[C@]12CC[C@H]3C(CCC4(O)CC(O)CC[C@]34C=O)C1=CC[C@H]2c1ccc(=O)oc1 (stereo partly specified) = 3490 nM (active)
• C[C@]12CC[C@H](O)C[C@H]1CC[C@@H]1[C@@H]2CC[C@]2(C)[C@@H](C3=CC(=O)OC3)[C@@H](O)C[C@]12O = 2580 nM (active)
• CCOC(=S)SCC(=O)Nc1nc(-c2ccc(Br)cc2)cs1 = 722 nM (active)
• COc1cccc(Nc2nc(-c3ccccc3)nc3ccccc23)c1 = 5530 nM (active)

Field: next compound
Retrieve AC50 measured for COc1ccccc1CN=C(S)Nc1ccc2nc(N3CCN(C)CC3)cc(C)c2c1 and print it. 168 nM (active)

The origin of these recorded values is ChEMBL document CHEMBL1201862.
